The origin of these recorded values is paper PMC3203539.

Molecular target: Sth1 (ATPase subunit of RSCt, trimeric minimal RSC) (Saccharomyces cerevisiae)
Sequence (P32597 301-1097): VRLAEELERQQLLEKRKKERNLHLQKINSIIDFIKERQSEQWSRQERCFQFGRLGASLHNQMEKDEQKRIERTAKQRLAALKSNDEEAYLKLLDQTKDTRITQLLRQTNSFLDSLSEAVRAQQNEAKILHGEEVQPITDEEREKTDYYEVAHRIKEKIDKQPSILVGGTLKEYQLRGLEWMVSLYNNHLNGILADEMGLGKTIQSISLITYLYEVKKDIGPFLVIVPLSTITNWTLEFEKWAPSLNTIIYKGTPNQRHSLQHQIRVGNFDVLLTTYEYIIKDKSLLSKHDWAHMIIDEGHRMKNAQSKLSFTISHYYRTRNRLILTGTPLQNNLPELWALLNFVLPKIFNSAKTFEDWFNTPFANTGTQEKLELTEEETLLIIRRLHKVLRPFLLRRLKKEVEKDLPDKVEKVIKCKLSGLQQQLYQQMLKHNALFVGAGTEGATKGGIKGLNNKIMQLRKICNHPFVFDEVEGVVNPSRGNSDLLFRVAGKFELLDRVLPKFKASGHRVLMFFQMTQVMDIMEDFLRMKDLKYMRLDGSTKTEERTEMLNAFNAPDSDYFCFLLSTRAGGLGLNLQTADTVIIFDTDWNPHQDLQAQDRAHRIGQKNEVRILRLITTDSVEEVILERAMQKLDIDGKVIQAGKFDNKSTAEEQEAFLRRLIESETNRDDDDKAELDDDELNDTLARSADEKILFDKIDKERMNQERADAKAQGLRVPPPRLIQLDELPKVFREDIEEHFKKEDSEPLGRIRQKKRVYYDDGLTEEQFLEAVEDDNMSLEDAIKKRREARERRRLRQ
Sequence (Q12406 1-477 partner): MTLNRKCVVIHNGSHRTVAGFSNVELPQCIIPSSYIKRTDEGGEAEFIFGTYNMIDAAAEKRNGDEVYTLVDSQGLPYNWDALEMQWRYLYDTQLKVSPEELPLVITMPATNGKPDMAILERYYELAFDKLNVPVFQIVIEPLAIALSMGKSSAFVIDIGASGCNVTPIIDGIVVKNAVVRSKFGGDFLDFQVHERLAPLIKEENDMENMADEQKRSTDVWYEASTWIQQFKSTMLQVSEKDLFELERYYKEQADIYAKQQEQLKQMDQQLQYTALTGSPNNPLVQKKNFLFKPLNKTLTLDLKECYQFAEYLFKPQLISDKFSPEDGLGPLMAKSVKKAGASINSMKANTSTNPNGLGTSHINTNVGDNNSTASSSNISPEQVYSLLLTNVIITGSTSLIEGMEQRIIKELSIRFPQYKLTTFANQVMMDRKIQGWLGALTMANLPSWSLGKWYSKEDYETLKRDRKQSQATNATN
Sequence (Q05123 1-467 partner): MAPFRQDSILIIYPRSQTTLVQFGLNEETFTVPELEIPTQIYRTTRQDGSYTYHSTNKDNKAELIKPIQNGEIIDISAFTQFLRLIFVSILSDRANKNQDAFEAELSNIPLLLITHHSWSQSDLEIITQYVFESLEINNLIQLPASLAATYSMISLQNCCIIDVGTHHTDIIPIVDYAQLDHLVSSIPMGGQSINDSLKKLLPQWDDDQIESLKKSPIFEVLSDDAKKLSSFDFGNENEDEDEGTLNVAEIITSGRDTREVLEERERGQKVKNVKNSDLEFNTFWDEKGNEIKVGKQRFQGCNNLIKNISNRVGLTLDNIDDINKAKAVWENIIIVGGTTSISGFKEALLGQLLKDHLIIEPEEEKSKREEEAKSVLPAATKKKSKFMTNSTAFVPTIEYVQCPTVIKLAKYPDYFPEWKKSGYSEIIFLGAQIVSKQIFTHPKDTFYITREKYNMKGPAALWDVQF
Assay type: binding
QUANTITY_KIND: pKd
In plain terms, pKd is the concentration in mol/L turned into minus its base-10 logarithm.

stdin: Write down the reported pKd of Nc1ncnc2c1ncn2[C@@H]1O[C@H](COP(=O)(O)OP(=O)(O)O)[C@@H](O)[C@H]1O [ADP] , test system: Sth1 (ATPase subunit of RSCt, trimeric minimal RSC) (Saccharomyces cerevisiae).
stdout: 4.85
